Data origin, for the record: patent EP4768505A1

Target: T1, Mouse CD79A+CD79B antigen (mouse) (UniProt P11911)
T1 sequence (looked up) 1: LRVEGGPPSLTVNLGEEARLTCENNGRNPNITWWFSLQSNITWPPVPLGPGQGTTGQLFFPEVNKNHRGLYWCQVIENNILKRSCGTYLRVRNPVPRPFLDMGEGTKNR
T1 sequence (looked up) 2: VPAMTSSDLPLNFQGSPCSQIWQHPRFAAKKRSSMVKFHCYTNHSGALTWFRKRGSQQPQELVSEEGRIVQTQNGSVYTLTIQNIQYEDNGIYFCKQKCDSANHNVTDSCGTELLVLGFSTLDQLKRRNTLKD
Test: ELISA on coated antigen, anti-myc detection; 2ug antibody added
OBSERVED_PROPERTY: OD450 nm (OD450)

BINDER	MEAS_VALUE
anti-CD79B single-domain antibody JYB4 (VHH, Alpaca VHH from a phage library; not shown: His-tag protein at the C-terminal end) VHH: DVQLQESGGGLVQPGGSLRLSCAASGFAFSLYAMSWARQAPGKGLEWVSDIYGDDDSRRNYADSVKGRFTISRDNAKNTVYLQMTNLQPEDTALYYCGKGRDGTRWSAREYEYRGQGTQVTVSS	0.0549
anti-CD79B single-domain antibody JYB10 (VHH, Alpaca VHH from a phage library; ELISA detected with an anti-myc antibody; a myc tag is not described; not shown: His-tag protein at the C-terminal end) VHH: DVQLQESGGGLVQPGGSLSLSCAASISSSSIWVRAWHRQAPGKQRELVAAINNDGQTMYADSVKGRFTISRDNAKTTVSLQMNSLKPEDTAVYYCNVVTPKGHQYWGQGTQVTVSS	0.0788
anti-CD79B single-domain antibody JYB11 (VHH, Alpaca VHH from a phage library; ELISA detected with an anti-myc antibody; a myc tag is not described; not shown: His-tag protein at the C-terminal end) VHH: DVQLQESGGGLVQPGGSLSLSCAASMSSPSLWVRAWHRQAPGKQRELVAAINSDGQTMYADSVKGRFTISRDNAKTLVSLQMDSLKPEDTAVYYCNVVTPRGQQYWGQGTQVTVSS	0.0651
anti-CD79B single-domain antibody JYB8 (VHH, not shown: small tags and cut ends) VHH: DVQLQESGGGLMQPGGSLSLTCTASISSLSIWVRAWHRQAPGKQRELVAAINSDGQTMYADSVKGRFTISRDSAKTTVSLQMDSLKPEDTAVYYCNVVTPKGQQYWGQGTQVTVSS	0.206
anti-CD79B single-domain antibody JYB14 (VHH, Alpaca VHH from a phage library; ELISA detected with an anti-myc antibody; a myc tag is not described; not shown: His-tag protein at the C-terminal end) VHH: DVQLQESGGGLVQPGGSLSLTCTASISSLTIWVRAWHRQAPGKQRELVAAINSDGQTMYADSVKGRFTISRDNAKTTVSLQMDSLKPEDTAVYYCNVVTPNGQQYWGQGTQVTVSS	0.0726
